Tested on: NCI-H460 lung
Experiment: NCI tumour cell line growth inhibition, 48 h
Rule: 1 for TGI not less than 10 µM, 0 for anything less.

# count of solved cases: 5
> print(dat)
                                   molecule  qualitative.label
1  COc1cc(S(=O)(=O)Nc2ccc(-c3csc(N4C(=O)C(Cl)C4c4cccc(Oc5ccccc5)c4)n3)cc2)ccc1Cl (stereo unspecified)                  1
2         Brc1c2nc3ccccc3nc2n2ccc3ccccc3c12                  1
3          CCNc1cc2oc(=O)cc(C(F)(F)F)c2cc1C                  1
4  C=C(C)[C@@H]1CC[C@]2(COCCCNCCCN)CC[C@]3(C)[C@H](CC[C@@H]4[C@@]5(C)CC[C@H](OCCCN)C(C)(C)[C@@H]5CC[C@]43C)[C@@H]12                  0
5                 COc1ccc(N2CN(C)CSC2=S)cc1                  1

TGI >= 10 µM for CO[C@H]1CC[C@]2(C)C3=CC[C@@]4(C)C(CC[C@@H]4C(C)CC[C@@H](C)C(C)C)C(=CCC2C1)O3 (stereo partly specified) ?
1

TGI >= 10 µM for O=C1/C(=C/c2ccc(F)c(F)c2)CN(C(=O)C(Cl)Cl)C/C1=C\c1ccc(F)c(F)c1 ?
0

TGI >= 10 µM for CCO/C(CCn1[nH]c(=O)c(Cl)c(Cl)c1=O)=N\NC(=O)C(=O)NN ?
1

TGI >= 10 µM for COc1cc(-c2nn(-c3cccc(NC(=O)NCCNS(=O)(=O)c4ccc(Cl)cc4)c3)cc2-c2ccncc2)ccc1Cl ?
0

TGI >= 10 µM for CCOc1cc(C(=O)O)c2c(ccc3ccc(OC)c(OC)c32)c1OC ?
1

TGI >= 10 µM for CCOC(=O)CCC(NC(=O)c1ccc(Nc2nc3cc(C(F)(F)F)ccc3nc2C(=O)OCC)cc1)C(=O)OCC (stereo unspecified) ?
1

TGI >= 10 µM for COc1cc(O)c(C(=O)CC(C)=O)c(OC)c1 ?
1

TGI >= 10 µM for O=C1C(C(c2ccc([N+](=O)[O-])cc2)N2CCOCC2)=C(O)C(c2ccccc2)N1c1ccccc1 (stereo unspecified) ?
1

TGI >= 10 µM for O=C(/C=C/c1ccc(OCc2ccccc2)cc1)NCc1ccc(C(=O)NCc2ccccc2)cc1 ?
1

TGI >= 10 µM for COc1ccc(C(C#N)=C2C=CC(=NO)C=C2)cc1 ?
1
